Recorded values, source PubChem BioAssay AID778.

study.system: Cytochrome P450 2C19 (Homo sapiens) (UniProt P33261)
Sequence (P33261 whole entry, looked up): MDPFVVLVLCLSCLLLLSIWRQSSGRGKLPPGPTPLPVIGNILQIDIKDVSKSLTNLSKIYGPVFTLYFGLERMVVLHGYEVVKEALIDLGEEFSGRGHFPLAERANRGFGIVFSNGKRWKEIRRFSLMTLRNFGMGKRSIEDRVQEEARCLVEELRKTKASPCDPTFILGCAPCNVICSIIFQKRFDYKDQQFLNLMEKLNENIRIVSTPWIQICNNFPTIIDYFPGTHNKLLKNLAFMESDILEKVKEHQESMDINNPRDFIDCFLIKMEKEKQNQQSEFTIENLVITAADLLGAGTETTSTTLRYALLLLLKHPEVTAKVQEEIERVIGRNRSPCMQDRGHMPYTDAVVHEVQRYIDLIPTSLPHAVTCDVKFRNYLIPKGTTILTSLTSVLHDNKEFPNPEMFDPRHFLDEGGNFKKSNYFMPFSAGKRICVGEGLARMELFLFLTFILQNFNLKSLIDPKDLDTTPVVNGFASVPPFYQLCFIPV
procedure.summary: blockers of cytochrome P450 2C19 activity – biochemical, luminescence, ADME assay, primary screen (AID 778)
protocol.conditions: CYP2C19 Supersomes, luciferin-H EGE luminescence, 30 min; at 5 µM
Hit rate of the full screen: of about 96,000 compounds, about 20,000 (21%) were called active.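 How the source made its calls: active means CYP2C19 inhibition above a set limit at 5 µM in the primary screen (cut at about 50% in these data); inactive means the rest.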 The list is a sample of the results.
Outcomes: true for active, false for inactive

molecule	study.system	assigned.class
CCN(CC)C(=O)CSc1nnc(-c2cccc(OC)c2)o1	Cytochrome P450 2C19 (Homo sapiens) (UniProt P33261)	false
CCCCNCc1ccc(SC)cc1	Cytochrome P450 2C19 (Homo sapiens) (UniProt P33261)	true
NC(=S)c1ccc(C(N)=S)o1	Cytochrome P450 2C19 (Homo sapiens) (UniProt P33261)	true
CC(C)CNC(=O)COC(=O)/C=C/c1ccccc1[N+](=O)[O-]	Cytochrome P450 2C19 (Homo sapiens) (UniProt P33261)	false
Cc1cc(Cl)ccc1N1C(=O)CC(SCCC(=O)O)C1=O (stereo unspecified)	Cytochrome P450 2C19 (Homo sapiens) (UniProt P33261)	false
O=C(CSc1nnc(-c2ccc(NS(=O)(=O)c3ccccc3)cc2)o1)NCC1CCCO1 (stereo unspecified)	Cytochrome P450 2C19 (Homo sapiens) (UniProt P33261)	false
N#Cc1nc(Cc2cccc3ccccc23)oc1NCc1ccc2c(c1)OCO2	Cytochrome P450 2C19 (Homo sapiens) (UniProt P33261)	false
Cc1cc(C)c([N+](=O)[O-])cc1-c1ccc(/C=N/NC(=O)c2nonc2N)o1	Cytochrome P450 2C19 (Homo sapiens) (UniProt P33261)	false
O=C(Nc1c(C(=O)N2CCCCC2)cnn1-c1ccccc1)c1ccco1	Cytochrome P450 2C19 (Homo sapiens) (UniProt P33261)	false
CCN(CC)C(=O)CSc1nnc(-c2ccc(S(=O)(=O)NCc3ccccc3Cl)cc2)o1	Cytochrome P450 2C19 (Homo sapiens) (UniProt P33261)	true
CC(C)CNC(=O)CC(c1ccccc1)c1c(O)ccc2ccccc12 (stereo unspecified)	Cytochrome P450 2C19 (Homo sapiens) (UniProt P33261)	true
